Each item that follows carries a reported koff.
Target: T1, Cynomolgus monkey DLL3 antigen protein (Kactus Biosystems, Cat. No. CM103) (Cynomolgus monkey, UniProt Q9NYJ7 27-490 (human entry))
T1 construct: also called cyno DLL3
T1 chain: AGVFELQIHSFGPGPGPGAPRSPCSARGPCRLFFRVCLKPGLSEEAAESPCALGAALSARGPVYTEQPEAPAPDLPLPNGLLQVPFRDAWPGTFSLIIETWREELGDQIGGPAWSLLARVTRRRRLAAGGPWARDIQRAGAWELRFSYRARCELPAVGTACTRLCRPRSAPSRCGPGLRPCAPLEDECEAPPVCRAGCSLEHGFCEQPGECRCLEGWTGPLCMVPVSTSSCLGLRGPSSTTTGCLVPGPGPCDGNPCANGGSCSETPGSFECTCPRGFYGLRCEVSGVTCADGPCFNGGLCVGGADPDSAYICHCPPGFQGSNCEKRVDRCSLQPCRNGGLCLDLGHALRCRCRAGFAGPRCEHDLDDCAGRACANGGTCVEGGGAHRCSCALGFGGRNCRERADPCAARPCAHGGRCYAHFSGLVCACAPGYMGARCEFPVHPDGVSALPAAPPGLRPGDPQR
Assay: affinity assay with Cynomolgus monkey DLL3 antigen protein (kinetics; method not restated, Biacore as in Example 18 implied)

{"columns": ["BINDER", "koff"],
 "data": [
  ["H2-39E2D11 mouse hybridoma-derived humanized anti-DLL3 antibody (antibody, V domains shown) VH: QVQLVQSGAEVKKPGASVKVSCKASGYTFISYWITWVRQAPGQGLEWMGDIYPGSGSTTNYNEKFKSRVTMTRDTSTSTVYMELSSLRSEDTAVYYCARETTVGGAYAMDYWGQGTLVTVSS VL: EIVLTQSPATLSLSPGERATLSCRASQSINNNLHWYQQKPGQAPRLLIKYVSQSISGIPARFSGSGSGTDFTLTISSLEPEDFAVYYCQQTNSWPLTFGGGTKLEIK", "3.16e-05 s⁻¹"],
  ["H2-39E2D11-AS humanized antibody variant (antibody, V domains shown, Variant of H2-39E2D11; Its constant regions are not restated) VH: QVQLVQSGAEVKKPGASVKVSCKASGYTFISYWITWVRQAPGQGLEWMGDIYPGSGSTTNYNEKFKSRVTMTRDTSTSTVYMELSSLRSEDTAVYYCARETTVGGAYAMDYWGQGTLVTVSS VL: EIVLTQSPATLSLSPGERATLSCRASQSINNNLHWYQQKPGQAPRLLIKYVSQSISGIPARFSGSGSGTDFTLTISSLEPEDFAVYYCQQTASWPLTFGGGTKLEIK", "0.000427 s⁻¹"],
  ["H2-39E2D11-NA humanized antibody variant (antibody, V domains shown, Variant of H2-39E2D11; Its constant regions are not restated) VH: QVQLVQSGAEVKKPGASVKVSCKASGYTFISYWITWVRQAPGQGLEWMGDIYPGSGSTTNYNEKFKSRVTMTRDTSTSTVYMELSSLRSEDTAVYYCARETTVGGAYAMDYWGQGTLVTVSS VL: EIVLTQSPATLSLSPGERATLSCRASQSINNNLHWYQQKPGQAPRLLIKYVSQSISGIPARFSGSGSGTDFTLTISSLEPEDFAVYYCQQTNAWPLTFGGGTKLEIK", "8.09e-05 s⁻¹"],
  ["H2-39E2D11-QS humanized antibody variant (antibody, V domains shown, Variant of H2-39E2D11; Its constant regions are not restated) VH: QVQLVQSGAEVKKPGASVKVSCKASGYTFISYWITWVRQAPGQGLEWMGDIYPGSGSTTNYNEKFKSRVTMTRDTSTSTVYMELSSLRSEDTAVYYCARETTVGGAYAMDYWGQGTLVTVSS VL: EIVLTQSPATLSLSPGERATLSCRASQSINNNLHWYQQKPGQAPRLLIKYVSQSISGIPARFSGSGSGTDFTLTISSLEPEDFAVYYCQQTQSWPLTFGGGTKLEIK", "8.59e-05 s⁻¹"]
]}
